Source of measurements: patent US20180193413A1

Item-by-item account of pKi
system name: T1, Human pancreatic α-amylase (human, UniProt P04746 16-511)
T1 construct: Recombinant, secreted from Pichia pastoris, purified and deglycosylated; also called HPA; human pancreatic alpha amylase
T1 sequence: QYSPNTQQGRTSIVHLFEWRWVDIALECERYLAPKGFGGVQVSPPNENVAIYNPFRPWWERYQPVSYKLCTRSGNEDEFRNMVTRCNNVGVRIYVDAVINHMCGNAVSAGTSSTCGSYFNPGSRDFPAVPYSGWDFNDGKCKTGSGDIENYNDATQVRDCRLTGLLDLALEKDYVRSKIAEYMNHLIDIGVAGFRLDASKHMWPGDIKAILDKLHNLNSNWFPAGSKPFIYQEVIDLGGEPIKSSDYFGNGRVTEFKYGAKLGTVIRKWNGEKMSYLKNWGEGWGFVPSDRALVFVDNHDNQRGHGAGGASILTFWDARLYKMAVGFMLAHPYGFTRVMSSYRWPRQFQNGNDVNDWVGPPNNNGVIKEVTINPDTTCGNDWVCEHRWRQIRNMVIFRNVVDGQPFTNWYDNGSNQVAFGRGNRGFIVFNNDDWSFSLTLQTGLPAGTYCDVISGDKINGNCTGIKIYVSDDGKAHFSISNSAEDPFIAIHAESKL
assay procedure: enzyme kinetics (CNP-G3 hydrolysis), uncleaved bar′ fusion
pKi: −log10 of the molar value. Where no end group is shown, it is not given here.
measured metric: pKi

{"binder": "ESGNSCYIYHGVSGICKASCAEDEKAMAGMGVCEGHLCCYKTPW (other, not fully specified (N-terminus); ends and bridges not checked, Uncleaved fusion secreted from E. coli BL21*(DE3), purified on nickel; The text says that the junction is a TEV site; also called barnase′-helianthamide) [bar′-Helianthamide fusion]", "data value": 9.05}
{"binder": "ESGNSCYIAHGVSGICKASCAEDEKAMAGMGVCEGHLCCYKTPW (other, not fully specified (N-terminus); ends and bridges not checked, Tested as uncleaved fusion; also called Y9A mutant of Helianthamide in bar′-Helianthamide fusion form) [Bar′-Y9A]", "data value": 7.33}
{"binder": "ESGNSCYIYAGVSGICKASCAEDEKAMAGMGVCEGHLCCYKTPW (other, not fully specified (N-terminus); ends and bridges not checked, Tested as uncleaved fusion; also called H10A mutant of Helianthamide in bar′-Helianthamide fusion form) [Bar′-H10A]", "data value": 7.82}
{"binder": "ESGNSCAIYHGVSGICKASCAEDEKAMAGMGVCEGHLCCYKTPW (other, not fully specified (N-terminus); ends and bridges not checked, Tested as uncleaved fusion; also called Y7A mutant of Helianthamide in bar′-Helianthamide fusion form) [Bar′-Y7A]", "data value": 8.30}
